Numbers sourced from patent US9572760B2.

# systemName: tyrosinase (Mus musculus)
# Construct: endogenous in cells; host or cells: B16F10 murine melanoma cells (ATCC), total cell lysate
# assayComment: Cellular tyrosinase activity assay (L-DOPA oxidation) in B16F10 cells exposed to UV
# Format: cell-based, murine
# testConditions: 10 μM; UV alone 52.55±4.36% increase over non-UV control (3.0±0.5 U/mg protein)
measurementKind: tyrosinase activity in UV-irradiated B16F10 cells

compound: CC(C)=CCOc1ccc(C2=C(CC(C)C)C(=O)NC2=O)cc1
result: 42.32±6.7%
//
compound: CC(C)=CCOc1ccc(C2=C(CC(C)C)C(=O)N(O)C2=O)cc1
result: 40.55±3.9%
//
compound: CC(C)=CCOc1ccc(C2=C(CC(C)C)C(=O)OC2=O)cc1
result: 26.75±2.3%
//
compound: CC(C)=CCOc1ccc([C@H]2C(=O)N(O)C(=O)[C@@H]2CC(C)C)cc1 (relative stereo)
result: 29.25±2.6%

====

# systemName: tyrosinase (Mus musculus, UniProt P11344)
# Construct: endogenous in cells; host or cells: B16F10 murine melanoma cells (ATCC), total cell lysate
# Sequence (P11344 19-533): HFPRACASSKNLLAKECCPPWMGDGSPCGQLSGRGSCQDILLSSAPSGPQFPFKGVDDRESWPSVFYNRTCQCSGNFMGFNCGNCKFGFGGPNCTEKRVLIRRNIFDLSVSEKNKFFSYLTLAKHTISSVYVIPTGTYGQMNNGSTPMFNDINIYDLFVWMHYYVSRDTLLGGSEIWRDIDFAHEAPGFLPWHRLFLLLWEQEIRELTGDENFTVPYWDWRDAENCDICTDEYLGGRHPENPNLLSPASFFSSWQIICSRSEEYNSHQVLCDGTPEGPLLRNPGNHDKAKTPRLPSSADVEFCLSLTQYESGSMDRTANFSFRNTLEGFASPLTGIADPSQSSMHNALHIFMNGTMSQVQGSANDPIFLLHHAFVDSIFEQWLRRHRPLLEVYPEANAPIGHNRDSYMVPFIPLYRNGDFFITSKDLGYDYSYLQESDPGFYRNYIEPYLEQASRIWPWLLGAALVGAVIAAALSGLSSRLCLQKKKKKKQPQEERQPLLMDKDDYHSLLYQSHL
# assayComment: Cellular tyrosinase activity assay (L-DOPA oxidation) in B16F10 cells exposed to UV
# Format: cell-based, murine
# testConditions: 3 μM; UV alone 52.55±4.36% increase over non-UV control (3.0±0.5 U/mg protein)
measurementKind: tyrosinase activity in UV-irradiated B16F10 cells (%)

molecule: CC(C)=CCOc1ccc([C@H]2C(=O)N(O)C(=O)[C@@H]2CC(C)C)cc1 (relative stereo)
quantitativeReadout: 38.5
--
molecule: CC(C)=CCOc1ccc(C2=C(CC(C)C)C(=O)N(O)C2=O)cc1
quantitativeReadout: 48.55
--
molecule: CC(C)=CCOc1ccc(C2=C(CC(C)C)C(=O)OC2=O)cc1
quantitativeReadout: 43.50
--
molecule: CC(C)=CCOc1ccc(C2=C(CC(C)C)C(=O)NC2=O)cc1
quantitativeReadout: 51.65
